Test system: Dengue 1 virus MY97-10245
Experiment: High-content imaging cell-based flavivirus immunodetection (HCl-CFI) assay, Dengue 1
Conditions: Dengue virus, A549, 48 h, read-out: Dengue 1 virus MY97-10245 in A549 using HCl [Inhibitor/IC50] Qualified AC50
pEC50: −log10 of the molar value.
Record form. Attribute: pEC50. Fill in for each entry.

{"columns": ["structure-as-smiles", "result"],
 "data": [
  ["COC(=O)c1cccc(CN2CCc3c(sc(NC(=O)Cc4ccc(S(N)(=O)=O)cc4)c3C#N)C2)c1", "6.00 to 7.00"]
]}

Give measured pEC50 for every item shown.
1. N#Cc1c(NC(=O)Cc2ccc(S(N)(=O)=O)cc2)sc2c1CCN(Cc1ccccc1F)C2
2. CS(=O)(=O)c1ccc(CC(=O)Nc2sc3c(c2C#N)CCN(Cc2cc(Cl)ccc2Cl)C3)cc1
3. N#Cc1c(NC(=O)Cc2ccc(S(N)(=O)=O)cc2)sc2c1CCN(Cc1cc(F)cc(F)c1)C2
4. Cc1cccc(CN2CCc3c(sc(NC(=O)Cc4ccc(S(C)(=O)=O)cc4)c3C#N)C2)c1

Reply:
< 6.00
< 6.00
6.00 to 7.00
< 6.00

Query: # pEC50 lookup, item COc1cccc(CC(=O)Nc2sc3c(c2C#N)CN(Cc2cccc(F)c2)CC3)c1Cl
Reply: < 6.00
